Source of measurements: PubChem BioAssay (Tox21)

Assay: qHTS assay to identify small molecule agonists of the retinoic acid receptor (RAR) signaling pathway (AID 1159553)
Details: C3RL4 RARE luciferase reporter, agonist, 6 h; series mostly up to 73.3 µM
Records with an inconclusive call do not appear. Activity calls are given as the source filed them. Calls come from the whole dose curve; as a rule, active = well fitted activation curve with a large enough effect in the repeat runs; inconclusive = weak or mixed curves, or effect the other way; inactive = no such curve, though single readings can be large or run the other way.
Outcome codes: active, inactive

compound: O=C(O)c1cc(=O)c2c(OCC(O)COc3cccc4oc(C(=O)O)cc(=O)c34)cccc2o1
assignedCategory: inactive

compound: CCCCCCCCCCCCS
assignedCategory: inactive

compound: CC(=O)CC(=O)Nc1ccccc1
assignedCategory: inactive

compound: CC(=O)Nc1ccccc1
assignedCategory: inactive

compound: O=C(Oc1ccccc1)c1ccccc1
assignedCategory: inactive

compound: Cc1cnc(C(=O)NCCc2ccc(S(=O)(=O)NC(=O)NC3CCCCC3)cc2)cn1
assignedCategory: inactive

compound: CCCCCC1=CCCC1=O
assignedCategory: inactive

compound: Cc1ccc2oc(=O)ccc2c1
assignedCategory: inactive

compound: C/C=C1/CC2C=CC1C2 (centres undefined)
assignedCategory: inactive

compound: c1c[nH]cn1
assignedCategory: inactive

compound: O=C(O)[C@H](O)[C@@H](O)[C@H](O)[C@H](O)CO
assignedCategory: inactive

compound: CCCCOC(=O)COc1ccc(Cl)cc1Cl
assignedCategory: inactive

compound: OCC(CO)(CBr)CBr
assignedCategory: inactive

compound: OCCOCCN1CCN(C2=Nc3ccccc3Sc3ccccc32)CC1
assignedCategory: inactive

compound: COc1ccc(Cl)cc1C(=O)NCCc1ccc(S(=O)(=O)NC(=O)NC2CCCCC2)cc1
assignedCategory: inactive

compound: COCCCOc1ccnc(CS(=O)c2nc3ccccc3[nH]2)c1C (centres undefined)
assignedCategory: active

compound: C=CCOC(=O)c1ccccc1C(=O)OCC=C
assignedCategory: inactive

compound: O=C(O)CC(C(=O)O)C(CC(=O)O)C(=O)O (centres undefined)
assignedCategory: inactive

compound: CC(=O)OCC(=O)[C@@]12N=C(C)O[C@@H]1C[C@H]1[C@@H]3CCC4=CC(=O)C=C[C@]4(C)[C@H]3[C@@H](O)C[C@@]12C
assignedCategory: inactive

compound: CCCCC(CC)COC(=O)CS (centres undefined)
assignedCategory: inactive

compound: O=C(O)c1ccc2c(c1)C(=O)OC2=O
assignedCategory: inactive

compound: CCCCCOC(C)=O
assignedCategory: inactive

compound: COc1ccc(NC(C)=O)cc1N
assignedCategory: inactive

compound: CCCCC(CC)COC(=O)CCCCC(=O)OCC(CC)CCCC (centres undefined)
assignedCategory: inactive

compound: CCCCC(CC)COC(=O)C(C#N)=C(c1ccccc1)c1ccccc1 (centres undefined)
assignedCategory: inactive

compound: Cc1ccc(S(N)(=O)=O)cc1
assignedCategory: inactive

compound: CCCCCCCCCCCCCCCO
assignedCategory: inactive

compound: c1ccc2c(c1)ccc1ccccc12
assignedCategory: inactive

compound: Cc1ccc(N(C)C)cc1
assignedCategory: inactive

---

Target: Progesterone receptor (Homo sapiens)
Assay: qHTS assay to identify small molecule antagonists of the progesterone receptor (PR) signaling pathway (AID 1346795)
Conditions: PR-UAS-bla HEK293T, beta-lactamase FRET ratio, 16 h; series mostly up to 92.4 µM
Source text: National Center for Advancing Translational Sciences [NCATS] NIH Chemical Genomics Center [NCGC] U.S. Environmental Protection Agency [EPA] National Institutes of Environmental Health Sciences [NIEHS] National Toxicology Program [NTP] U.S. Food and Drug Administration [FDA] Progesterone receptor (PR), a nuclear hormone receptor, plays an important role in development, metabolic homeostasis and reproduction. […]
Records with an inconclusive call do not appear. The source made the active and inactive calls. Calls follow the shape of the dose curve; as a rule, active = well fitted inhibition curve with a large enough effect in the signal ratio in the repeat runs (not every such curve was filed as active); inconclusive = weak or mixed curves; inactive = flat fitted curve, though single readings scatter; the % refers to the signal ratio.
Outcome codes: True = active, False = inactive

molecule: C=C(C)C(=O)OCCOCCOCCOC(=O)C(=C)C
assignedCategory: False
--
molecule: CC(=O)Nc1cccc(O)c1
assignedCategory: False
--
molecule: CC(=O)CC(=O)Nc1ccccc1C
assignedCategory: False
--
molecule: CCCCCCCCCCCCCCO
assignedCategory: False
--
molecule: CN(C)CCC(c1ccc(Cl)cc1)c1ccccn1 (stereo unspecified)
assignedCategory: False
--
molecule: CC(O)COCC(C)O (stereo unspecified)
assignedCategory: False
--
molecule: CCOC(=O)NNc1nncc2ccccc12
assignedCategory: False
--
molecule: Cc1ccc(S(N)(=O)=O)cc1
assignedCategory: False
--
molecule: Nc1ccccc1[N+](=O)[O-]
assignedCategory: False
--
molecule: Cc1cc(C)c(C)cc1C
assignedCategory: False
--
molecule: CCCSc1ccc2nc(NC(=O)OC)[nH]c2c1
assignedCategory: True
--
molecule: CCCCCCOCCO
assignedCategory: False
--
molecule: CN(C)CCOCCN(C)C
assignedCategory: False
--
molecule: CC(=O)c1ccccc1
assignedCategory: False
--
molecule: O=C(Oc1ccccc1)c1ccccc1
assignedCategory: False
--
molecule: CCCCC(CC)CO (stereo unspecified)
assignedCategory: False
